# Study Target: 17-beta-hydroxysteroid dehydrogenase type 2 (Homo sapiens)
# Procedure Summary: Inhibitory activity at 10 uM against 17-beta-hydroxysteroid dehydrogenase type 2 in MDAMB-231 human breast cancer cells using 2 nM [3H]estradiol
# Assay type: cell-based
# Particulars: Cancer cell lines
Measurement Kind: inhibition (%)
One number for each entry, in %.

- Compound: "Cc1cnc(CNC(=O)c2[nH]nc3c2CC2C4CCc5cc(O)ccc5C4CC[C@]32C)cn1 (stereo not given in full)"
  inhibition, %: 61

Hi there! I need inhibition for each item below, if you can.
1. CC(C)NC(=O)c1[nH]nc2c1CC1C3CCc4cc(O)ccc4C3CC[C@]21C (stereo not given in full)
2. C[C@]12CCC3c4ccc(O)cc4CCC3C1Cc1c2n[nH]c1C(=O)O (stereo not given in full)
3. C[C@]12CC[C@@H]3c4ccc(O)cc4CCC3[C@@H]1CC(C#N)C2=O (single isomer, unassigned)

Ans.
0
6
17

Value of inhibition reported for the compound CCOC(=O)C(=O)C1=C(O)[C@@]2(C)CCC3c4ccc(O)cc4CCC3C2C1 (stereo not given in full) is 7
